- experimental_target: Glutamine synthetase (Lolium perenne, UniProt C5IW59)
- Sequence (C5IW59 whole entry): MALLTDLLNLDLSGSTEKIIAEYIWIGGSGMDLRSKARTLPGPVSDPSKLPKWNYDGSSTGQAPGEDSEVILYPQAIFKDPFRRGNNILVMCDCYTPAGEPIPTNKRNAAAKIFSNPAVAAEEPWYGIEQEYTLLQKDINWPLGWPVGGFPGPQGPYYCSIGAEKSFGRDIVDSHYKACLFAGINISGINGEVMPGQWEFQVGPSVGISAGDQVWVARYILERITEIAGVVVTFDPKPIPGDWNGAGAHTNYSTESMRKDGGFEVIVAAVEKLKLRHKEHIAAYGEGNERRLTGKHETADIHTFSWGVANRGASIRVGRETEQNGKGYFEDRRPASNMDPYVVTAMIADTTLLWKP
- experimental_details: Inhibition of glutamine synthetase in glufosinate-susceptible Lolium multiflorum C1 (Italian ryegrass) seedlings
- condition_label: read-out: I50
value_type: pIC50
Answers are plain numbers, as −log10 of the molar value.

QUERY: Look up and report measured pIC50 (Glutamine synthetase (Lolium perenne, UniProt C5IW59)) for the following compound: CP(=O)(O)CCC(N)C(=O)O (stereo unspecified) [GLUFOSINATE]
RESULT: 4.51
